target.desc: T1, human CD40 extracellular domain with C-terminal His-AviTag (human, UniProt P25942 21-193)
T1 construct: not shown: C-terminal His-AviTag
procedure.text: SPR, antibody captured, CD40 ECD analyte;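 also: biacore SPR at 25 °C in PBS-T pH 7.4, CD40 ECD analyte from 300 nM in 1:3 series, 300 s association, up to 1200 s dissociation, double-referenced, Langmuir 1:1 fit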
test.readout: koff (s⁻¹)
Expressed in s⁻¹, but write only the number.

>  <binder>
P1AE1007, humanized anti-CD40 antibody VH1d/VL1b, huIgG1_LALA_PG (antibody, V domains shown, huIgG1 with effector silent Fc (P329G, L234A, L235A)) VH: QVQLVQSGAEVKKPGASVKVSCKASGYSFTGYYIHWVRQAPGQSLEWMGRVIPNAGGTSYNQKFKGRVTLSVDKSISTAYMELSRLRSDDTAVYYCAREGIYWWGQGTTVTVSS VL: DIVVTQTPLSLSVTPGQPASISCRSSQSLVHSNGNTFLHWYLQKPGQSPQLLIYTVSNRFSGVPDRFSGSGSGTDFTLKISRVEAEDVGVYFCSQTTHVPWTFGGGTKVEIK

>  <endpoint.unit>
s⁻¹

>  <number>
0.00662

$$$$
>  <binder>
P1AE1005, humanized anti-CD40 antibody VH1b/VL1d, huIgG1_LALA_PG (antibody, V domains shown, huIgG1 with effector silent Fc (P329G, L234A, L235A)) VH: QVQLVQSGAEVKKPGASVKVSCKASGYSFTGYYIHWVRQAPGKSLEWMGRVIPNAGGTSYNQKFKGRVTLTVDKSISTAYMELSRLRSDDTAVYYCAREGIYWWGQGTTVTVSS VL: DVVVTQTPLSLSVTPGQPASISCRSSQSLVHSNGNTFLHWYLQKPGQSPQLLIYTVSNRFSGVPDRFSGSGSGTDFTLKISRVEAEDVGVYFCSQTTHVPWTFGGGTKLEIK

>  <endpoint.unit>
s⁻¹

>  <number>
0.00816

$$$$
>  <binder>
P1AE0400, humanized anti-CD40 antibody VH2a/VL2a, huIgG1_LALA_PG (antibody, V domains shown, also called VL2a/VH2a) VH: EVQLLESGGGLVQPGGSLRLSCAASGYSFTGYYIHWVRQAPGKGLEWVGRVIPNAGGTSYNQKFKGRFTISVDNSKNTAYLQMNSLRAEDTAVYYCAREGIYWWGQGTTVTVSS VL: DIQMTQSPSSLSASVGDRVTITCRSSQSLVHSNGNTFLHWYQQKPGKAPKLLIYTVSNRFSGVPSRFSGSGSGTDFTLTISSLQPEDFATYFCSQTTHVPWTFGGGTKVEIKR

>  <endpoint.unit>
s⁻¹

>  <number>
0.00699

$$$$
>  <binder>
P1AE0402, humanized anti-CD40 antibody VH2c/VL2a, huIgG1_LALA_PG (antibody, V domains shown, huIgG1 with effector silent Fc (P329G, L234A, L235A); also called VL2a/VH2c) VH: EVQLLESGGGLVQPGGSLRLSCAASGYSFTGYYIHWVRQAPGKGLEWVGRVIPNAGGTSYNQKFKGRFTISVDNSKNTAYLQMNSLRAEDTAVYYCAREGIYWWGHGTTVTVSS VL: DIQMTQSPSSLSASVGDRVTITCRSSQSLVHSNGNTFLHWYQQKPGKAPKLLIYTVSNRFSGVPSRFSGSGSGTDFTLTISSLQPEDFATYFCSQTTHVPWTFGGGTKVEIK

>  <endpoint.unit>
s⁻¹

>  <number>
0.00709

$$$$
>  <binder>
P1AE0406, humanized anti-CD40 antibody VH2c/VL2b, huIgG1_LALA_PG (antibody, V domains shown, huIgG1 with effector silent Fc (P329G, L234A, L235A); also called VL2b/VH2c) VH: EVQLLESGGGLVQPGGSLRLSCAASGYSFTGYYIHWVRQAPGKGLEWVGRVIPNAGGTSYNQKFKGRFTISVDNSKNTAYLQMNSLRAEDTAVYYCAREGIYWWGHGTTVTVSS VL: DIQMTQSPSSLSASVGDRVTITCRSSQSLVHSNGNTFLHWYQQKPGQSPKLLIYTVSNRFSGVPSRFSGSGSGTDFTLTISSLQPEDFATYFCSQTTHVPWTFGGGTKVEIK

>  <endpoint.unit>
s⁻¹

>  <number>
0.00709

$$$$

# binder P1AE0993, humanized anti-CD40 antibody VH1a/VL1c, huIgG1_LALA_PG (antibody, V domains shown, huIgG1 with effector silent Fc (P329G, L234A, L235A)) VH: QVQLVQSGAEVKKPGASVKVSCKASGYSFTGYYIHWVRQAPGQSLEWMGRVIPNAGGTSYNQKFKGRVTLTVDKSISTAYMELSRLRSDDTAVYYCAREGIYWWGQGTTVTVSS VL: DVVVTQTPLSLSVTPGQPASISCRSSQSLVHSNGNTFLHWYLQKPGQSPQLLIYTVSNRFSGVPDRFSGSGSGTDFTLKISRVEAEDVGVYFCSQTTHVPWTFGGGTKVEIK ; its koff = 0.00898

# binder P1AE1002, humanized anti-CD40 antibody VH1b/VL1a, huIgG1_LALA_PG (antibody, V domains shown, huIgG1 with effector silent Fc (P329G, L234A, L235A)) VH: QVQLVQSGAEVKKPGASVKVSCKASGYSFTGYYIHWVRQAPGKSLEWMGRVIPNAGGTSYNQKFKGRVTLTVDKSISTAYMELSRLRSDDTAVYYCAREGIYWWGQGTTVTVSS VL: DIVMTQTPLSLSVTPGQPASISCRSSQSLVHSNGNTFLHWYLQKPGQSPQLLIYTVSNRFSGVPDRFSGSGSGTDFTLKISRVEAEDVGVYFCSQTTHVPWTFGGGTKVEIK ; its koff = 0.00557
